# Test system: RXF 393 renal
# ASSAY_OVERVIEW: NCI tumour cell line growth inhibition, 48 h
EXPERIMENTAL_ENDPOINT: log10 of TGI (log10 of the value in µM)
Kindly note that the scale is log10 and the underlying TGI is in µM.

Value lookup for log10 of TGI; key = CC[C@@H](O)C[C@H]1CCC[C@@]2(C[C@@H]3OC(=O)/C=C/[C@@](C)(O)[C@@H](O)[C@H](C)[C@@H](O)[C@H](OC4CCC(N(C)C)C(C)O4)[C@@H](O)[C@](C)(O)CCCCC/C=C/[C@@H]4CC(C)(C)O[C@@]4(O)C[C@H](O2)[C@H]3C)O1 (stereo partly specified)
1.54

Same thing, different compound: Cc1ccccc1N=Nc1c(-c2ccccc2)nn(C(=O)CC(=O)Nc2cccc(Cl)c2)c1-c1ccccc1
1.45

Same thing, different compound: CCc1nc2cc(/C=C/C(=O)NO)ccc2c(=O)n1CCc1ccc(OC)cc1
0.68

Same thing, different compound: COc1cccc(NC(=O)c2sc3nc4c(cc3c2N)C(O)CCC4)c1 (stereo unspecified)
1.58

Same thing, different compound: CCC[CH2][Sn]([CH2]CCC)([CH2]CCC)[O]C(=O)C(OC)c1ccccc1 (stereo unspecified)
-0.71

Same thing, different compound: COc1ccc(-c2nc(N)c(C#N)c3c2CCOc2c-3ccc3ccccc23)cc1
1.49

Same thing, different compound: O=C1C=C(Nc2ccc(S(=O)(=O)Nc3ncccn3)cc2)c2ccccc2C1=O
1.68

Same thing, different compound: COc1cc(S(=O)(=O)Nc2ccc(-c3csc(N4C(=O)C(Cl)C4c4cccs4)n3)cc2)ccc1Cl (stereo unspecified)
1.94

Same thing, different compound: C=C1C(=O)O[C@H]2[C@H]1CC/C(COC(=O)NCCc1cccc(OC)c1)=C\CC[C@@]1(C)O[C@@H]21
0.38

Same thing, different compound: CN1CCN(CCCOc2cccc3nc(Nc4ccc(F)c(F)c4)ccc23)CC1
0.82

Same thing, different compound: CC(C)=C[C@@H]1O[C@H](O)[C@@H]([C@H]2CC[C@@]3(C)[C@@H]4CC[C@H]5C(C)(C)C(=O)CC[C@@]56C[C@@]46CC[C@]23C)[C@@H]1O
1.44

Same thing, different compound: COc1ccc(C2C3=C(COC3=O)OC(C)(C)Oc3cc4c(cc32)OCO4)cc1OC (stereo unspecified)
1.84

Same thing, different compound: COc1ccc(-c2nsc3c2NC(=O)CC3c2cccc(Cl)c2)cc1 (stereo unspecified)
1.52

Same thing, different compound: CCOc1ccc(C(C)=O)cc1NC(=O)c1cccc(-c2nnn(CC)n2)c1
1.06

Same thing, different compound: O=C(/C=C\n1cnc(-c2cc(C(F)(F)F)cc(C(F)(F)F)c2)n1)N1CC(F)(F)C1
0.04
